B1: EPB41L3 (parent)
chain: SDYISEFRFAPNHTKELEDKVIEL

variants of: B1; test: protein stability index of a GFP-peptide fusion (GPS, HEK-293T) (PSI 1-6); higher = more stable; conditions: c terminus: a fixed tail appended;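 note: lentivirally expressed fusions sorted by FACS into six bins by GFP to DsRed ratio, PSI derived from sequencing read proportions per bin multiplied by bin number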
Quick rule: protein stability index of at least 4 means condition met, below that means condition not met.

Here are 4 variants together with their reported answers.
K20D: condition not met
I4A: condition not met
I22K: condition not met
P11L: condition not met

Quick check, protein stability index >= 4? F7R
condition met

Okay, and N12M ?
condition not met

Field entry: P11E
condition met

Now consider K20I .
condition not met

Ok, now Y3I
condition not met
